system: human FAAH (Homo sapiens, UniProt O00519)
Construct: made in house; 10000 g pellet suspended in M-PER
Sequence (O00519 1-579): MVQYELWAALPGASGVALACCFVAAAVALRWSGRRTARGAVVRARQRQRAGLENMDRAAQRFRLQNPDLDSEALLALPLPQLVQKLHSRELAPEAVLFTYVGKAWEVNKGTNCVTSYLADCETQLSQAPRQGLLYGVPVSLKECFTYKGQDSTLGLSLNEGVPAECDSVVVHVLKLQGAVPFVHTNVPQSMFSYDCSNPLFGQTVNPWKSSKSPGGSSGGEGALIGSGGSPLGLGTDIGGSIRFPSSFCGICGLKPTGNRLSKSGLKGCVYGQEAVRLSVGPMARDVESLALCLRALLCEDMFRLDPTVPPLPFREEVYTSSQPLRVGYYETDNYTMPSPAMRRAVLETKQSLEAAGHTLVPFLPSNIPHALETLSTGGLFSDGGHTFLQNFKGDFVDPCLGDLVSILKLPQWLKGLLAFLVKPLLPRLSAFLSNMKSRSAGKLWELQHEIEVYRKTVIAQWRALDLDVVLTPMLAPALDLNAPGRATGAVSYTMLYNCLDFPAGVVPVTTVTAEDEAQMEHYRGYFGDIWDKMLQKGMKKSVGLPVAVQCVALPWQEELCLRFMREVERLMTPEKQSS
assayComment: Measurement of FAAH inhibitory activity (anandamide [ethanolamine 1-3H] hydrolysis, filter plate)
Type: biochemical
conditionSet: test compound 1 μM; CHO-K1/human FAAH enzyme fraction; anandamide 25 nM; 37° C., 30 minutes; read-out: Human FAAH Inhibition Rate at 1 μM (%)
Below, each of the compounds is paired with its reported inhibition at 1 µM value.
observationType: inhibition at 1 µM (%)

structure=O=C(Nc1cnccn1)N1CCN(c2nc(-c3ccccc3)cs2)CC1 system="human FAAH (Homo sapiens, UniProt O00519)" observationtype="inhibition at 1 µM" resultnumber=106
structure=CC(C)c1nsc(N2CCN(C(=O)Nc3noc4ccccc34)CC2)n1 system="human FAAH (Homo sapiens, UniProt O00519)" observationtype="inhibition at 1 µM" resultnumber=98
structure=Cc1cccc(-c2csc(N3CCN(C(=O)Nc4onc(C)c4C)CC3)n2)c1 system="human FAAH (Homo sapiens, UniProt O00519)" observationtype="inhibition at 1 µM" resultnumber=86
structure=O=C(Nc1noc2ccccc12)N1CCN(c2nc(-c3ccccc3)ns2)CC1 system="human FAAH (Homo sapiens, UniProt O00519)" observationtype="inhibition at 1 µM" resultnumber=100
structure=Cc1noc(NC(=O)N2CCC(c3nc(-c4ccccc4)cs3)CC2)c1C system="human FAAH (Homo sapiens, UniProt O00519)" observationtype="inhibition at 1 µM" resultnumber=103

* * *

system: human FAAH (Homo sapiens, UniProt O00519)
Construct: made in house; 10000 g pellet suspended in M-PER
assayComment: Measurement of FAAH inhibitory activity (anandamide [ethanolamine 1-3H] hydrolysis, filter plate)
Assay type: biochemical
conditionSet: test compound 1 μM; CHO-K1/human FAAH enzyme fraction; anandamide 25 nM; 37° C., 30 minutes; read-out: Human FAAH Inhibition Rate at 1 μM (%)
Listed next: entries and their corresponding inhibition at 1 µM.
observationType: inhibition at 1 µM (%)

compound="O=C(Nc1cccnc1)N1CCN(c2nc(-c3cccc(F)c3F)cs2)CC1 [Example 262]" measurementunits=% resultnumber=106
compound="O=C(Nc1noc2ccccc12)N1CCN(C(=O)OCc2ccccc2)CC1 [Example 95]" measurementunits=% resultnumber=100
compound="Cc1noc(NC(=O)N2CCN(c3nc(-c4cccc(Cl)c4Cl)cs3)CC2)c1C [Example 284]" measurementunits=% resultnumber=128
compound="Cc1cccc(-c2csc(N3CCN(C(=O)Nc4cccnc4)CC3)n2)c1 [Example 275]" measurementunits=% resultnumber=94
compound="O=C(Nc1noc2ccccc12)N1CCN(c2nc(-c3ccccc3)no2)CC1 [Example 22]" measurementunits=% resultnumber=94
compound="Cc1noc(NC(=O)N2CCC(c3nc(-c4ccc(F)cc4)cs3)CC2)c1C [Example 236]" measurementunits=% resultnumber=106
compound="O=C(Nc1cccnn1)N1CCN(c2nc(-c3ccccc3)ns2)CC1 [Example 147]" measurementunits=% resultnumber=101
compound="Cc1noc(NC(=O)N2CCN(c3nc(-c4cccc(Cl)c4)cs3)CC2)c1C [Example 276]" measurementunits=% resultnumber=104
compound="O=C(Nc1cccnn1)N1CCN(c2nc(-c3cccc(F)c3F)cs2)CC1 [Example 272]" measurementunits=% resultnumber=102

* * *

system: human FAAH (Homo sapiens)
Construct: made in house; 10000 g pellet suspended in M-PER
Sequence (O00519 1-579): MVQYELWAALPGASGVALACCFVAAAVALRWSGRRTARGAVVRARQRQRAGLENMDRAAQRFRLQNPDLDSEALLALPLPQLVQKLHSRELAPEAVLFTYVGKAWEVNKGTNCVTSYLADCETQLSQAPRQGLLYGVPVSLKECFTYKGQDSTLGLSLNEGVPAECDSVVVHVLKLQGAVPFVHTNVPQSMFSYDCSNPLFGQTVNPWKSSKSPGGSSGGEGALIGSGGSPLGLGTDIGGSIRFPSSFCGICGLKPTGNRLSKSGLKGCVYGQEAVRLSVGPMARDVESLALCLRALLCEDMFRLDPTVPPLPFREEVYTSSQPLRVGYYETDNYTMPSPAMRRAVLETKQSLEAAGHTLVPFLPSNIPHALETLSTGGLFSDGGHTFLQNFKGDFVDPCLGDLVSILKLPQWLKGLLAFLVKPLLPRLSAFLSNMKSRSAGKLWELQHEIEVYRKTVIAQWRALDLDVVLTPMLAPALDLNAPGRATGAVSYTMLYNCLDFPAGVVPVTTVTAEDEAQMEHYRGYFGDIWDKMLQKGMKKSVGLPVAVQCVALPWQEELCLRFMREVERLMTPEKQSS
assayComment: Measurement of FAAH inhibitory activity (anandamide [ethanolamine 1-3H] hydrolysis, filter plate)
Type: biochemical
conditionSet: test compound 1 μM; CHO-K1/human FAAH enzyme fraction; anandamide 25 nM; 37° C., 30 minutes; read-out: Human FAAH Inhibition Rate at 1 μM (%)
Structures can show the parent of a compound that is named as a salt.
observationType: inhibition at 1 µM (%)

compound="O=C(Nc1cccnc1)N1CCN(c2nc(-c3ccccc3)ns2)CC1 [Example 85, hydrochloride]" system="human FAAH (Homo sapiens)" resultnumber=100
compound=O=C(Nc1ccc2[nH]nnc2c1)N1CCN(c2nc(-c3ccccc3)ns2)CC1 system="human FAAH (Homo sapiens)" resultnumber=108
compound=O=C(Nc1cccnc1)N1CCN(c2nc(-c3ccccc3)cs2)CC1 system="human FAAH (Homo sapiens)" resultnumber=100
compound=O=C(Nc1cnccn1)N1CCN(c2nc(-c3cccc(F)c3)cs2)CC1 system="human FAAH (Homo sapiens)" resultnumber=105
compound=O=C(Nc1cccnc1)N1CCN(c2nc(-c3cccc(Cl)c3Cl)cs2)CC1 system="human FAAH (Homo sapiens)" resultnumber=102
compound=Cc1noc(NC(=O)N2CCN(c3nc(-c4ccc(F)cc4F)cs3)CC2)c1C system="human FAAH (Homo sapiens)" resultnumber=102
compound=O=C(Nc1cccnn1)N1CCN(c2nc(-c3cccc(F)c3)cs2)CC1 system="human FAAH (Homo sapiens)" resultnumber=106
compound=Cc1noc(NC(=O)N2CCN(c3nc(-c4cccc(C(F)(F)F)c4)cs3)CC2)c1C system="human FAAH (Homo sapiens)" resultnumber=104
compound=O=C(Nc1noc2ccccc12)N1CCN(c2nc(-c3ccccc3)co2)CC1 system="human FAAH (Homo sapiens)" resultnumber=100
compound=COc1cccc(-c2csc(N3CCN(C(=O)Nc4onc(C)c4C)CC3)n2)c1 system="human FAAH (Homo sapiens)" resultnumber=100
compound=O=C(Nc1noc2ccccc12)N1CCN(c2nc(N3CCCCC3)ns2)CC1 system="human FAAH (Homo sapiens)" resultnumber=95
compound=CCc1sc(N2CCN(C(=O)Nc3ccc(NC(C)=O)nc3)CC2)nc1-c1ccccc1 system="human FAAH (Homo sapiens)" resultnumber=104
compound=O=C(Nc1noc2ccccc12)N1CCN(c2nc(-c3ccccn3)ns2)CC1 system="human FAAH (Homo sapiens)" resultnumber=102
